target: HIV-1 RT wild-type enzyme (Human immunodeficiency virus type 1 group M subtype B (isolate HXB2) (HIV-1)); test: HIV-1 reverse transcriptase inhibitory activity (RT polymerase assay); type: biochemical; conditions: HIV-1 RT wild-type enzyme 83 pM; RNA-dependent DNA polymerase activity; read-out: IC50
Overview of recorded pIC50 for various compounds
Give only the number. pIC50 is defined as minus log10 of concentration in molar units.

Query :: Would you kindly share the measured pIC50 for N#Cc1cc(Cl)cc(Oc2c(C(F)(F)F)ncn(Cc3cc(-c4ccc(F)c(Cl)c4)c(=O)[nH]n3)c2=O)c1 ?
Result :: 8.15

Query :: I am curious: what pIC50 value has been reported for COc1cc(Cn2cnc(C(F)(F)F)c(Oc3cc(Cl)cc(C#N)c3)c2=O)n[nH]c1=O ?
Result :: 7.92

Query :: Requested read-out: pIC50. Entry: N#Cc1cc(Cl)cc(Oc2c(C(F)(F)F)ncn(Cc3cc(-c4cn[nH]c4)c(=O)[nH]n3)c2=O)c1
Result :: 8.30

Query :: Quick one: pIC50 of N#Cc1cc(Cl)cc(Oc2c(C(F)(F)F)ncn(Cc3cc(-c4cccc(F)c4F)n[nH]c3=O)c2=O)c1 ?
Result :: 8.52

Query :: What value of pIC50 has been recorded for this entry: CC(F)(F)c1cc(Cn2cnc(C(C)(F)F)c(Oc3cc(Cl)cc(C#N)c3)c2=O)c(=O)[nH]n1
Result :: 8.30

Query :: Return reported pIC50; argument: CS(=O)(=O)c1cccc(-c2cc(Cn3cnc(C(F)(F)F)c(Oc4cc(Cl)cc(C#N)c4)c3=O)n[nH]c2=O)c1
Result :: 7.82

Query :: Give the measured pIC50 of Cc1c(C#N)cc(F)cc1Oc1c(C(F)(F)F)ncn(Cc2ccc(=O)[nH]n2)c1=O .
Result :: 8.15
